Target: human FXR (NR1H4) (Homo sapiens (Human))
Assay: Human FXR (NR1H4) Assay (Gal4 promoter driven luciferase reporter, Indigo Bioscience kit IB00601)
Details: potency ranges
Attribute Measured: EC50

These recorded examples may help you get a feel for the data.
>>> observed_value("CC[C@H]1[C@@H](O)[C@@H]2[C@H](CC[C@]3(C)[C@@H]([C@H](C)CCNC(=O)NS(=O)(=O)N4CC(C)C(C)C4)CC[C@@H]23)[C@@]2(C)CC[C@@H](O)C[C@@H]12 (some centres unmarked) [Example 99]")
"< 100 nM"
>>> observed_value("CC[C@H]1[C@@H](O)[C@@H]2[C@H](CC[C@]3(C)[C@@H]([C@H](C)CCNC(=O)NS(N)(=O)=O)CC[C@@H]23)[C@@]2(C)CC[C@@H](O)C[C@@H]12 [Example 124]")
"1000 to 10000 nM"
>>> observed_value("CC[C@H]1[C@@H](O)[C@@H]2[C@H](CC[C@]3(C)[C@@H]([C@H](C)CNC(=O)NS(=O)(=O)c4ccc5ccccc5c4)CC[C@@H]23)[C@@]2(C)CC[C@@H](O)C[C@@H]12 [Example 32]")
"< 100 nM"
>>> observed_value("CC[C@H]1[C@@H](O)[C@@H]2[C@H](CC[C@]3(C)C([C@H](C)CCNS(=O)(=O)c4ccccc4)CC[C@@H]23)[C@@]2(C)CC[C@@H](O)C[C@@H]12 (some centres unmarked) [Example 130]")
"1000 to 10000 nM"
>>> observed_value("C[C@H](CCNC(=O)NS(=O)(=O)c1ccc(C(C)(C)C)cc1)[C@H]1CC[C@H]2[C@@H]3[C@H](O)C[C@@H]4C[C@H](O)CC[C@]4(C)[C@H]3CC[C@]12C [Example 110]")
"1000 to 10000 nM"

# EC50 (molecule: CC[C@H]1[C@@H](O)[C@@H]2[C@H](CC[C@]3(C)[C@@H]([C@H](C)CCNC(=O)NS(=O)(=O)c4ccc(C)c(C)c4)CC[C@@H]23)[C@@]2(C)CC[C@@H](O)C[C@@H]12 [Example 17] ) is < 100 nM

Note to self: EC50 recorded for CC[C@H]1[C@@H](O)[C@@H]2[C@H](CC[C@]3(C)[C@@H]([C@H](C)CCNC(=O)NS(=O)(=O)N4[C@H](C)CCC[C@@H]4C)CC[C@@H]23)[C@@]2(C)CC[C@@H](O)C[C@@H]12 [Example 96] was < 100 nM

According to the records, this molecule CC[C@H]1[C@@H](O)[C@@H]2[C@H](CC[C@]3(C)[C@@H]([C@H](C)CCNC(=O)NS(=O)(=O)c4ccc(Cl)cc4)CC[C@@H]23)[C@@]2(C)CC[C@@H](O)C[C@@H]12 [Example 25] displays EC50 of < 100 nM

// CC[C@H]1[C@@H](O)[C@@H]2[C@H](CC[C@]3(C)[C@@H]([C@H](C)CCNC(=O)NS(=O)(=O)N4CCS(=O)(=O)CC4)CC[C@@H]23)[C@@]2(C)CC[C@@H](O)C[C@@H]12 [Example 83] : EC50 value = 1000 to 10000 nM

Record CC[C@H]1[C@@H](O)[C@@H]2[C@H](CC[C@]3(C)[C@@H]([C@H](C)CCNC(=O)NS(=O)(=O)N4CCC(C(C)(C)C)CC4)CC[C@@H]23)[C@@]2(C)CC[C@@H](O)C[C@@H]12 [Example 67] , field EC50: < 100 nM

The molecule listed as CC[C@H]1[C@@H](O)[C@@H]2[C@H](CC[C@]3(C)[C@@H]([C@H](C)CCNC(=O)NS(=O)(=O)NC)CC[C@@H]23)[C@@]2(C)CC[C@@H](O)C[C@@H]12 [Example 125] has a reported EC50 of 1000 to 10000 nM

Looking up CC[C@H]1[C@@H](O)[C@@H]2[C@H](CC[C@]3(C)[C@@H]([C@H](C)CCNC(=O)NS(=O)(=O)c4cccc(-c5nc(C)cs5)c4)CC[C@@H]23)[C@@]2(C)CC[C@@H](O)C[C@@H]12 [Example 80] , I found its EC50 recorded as 100 to 1000 nM

// sample CC[C@H]1[C@@H](O)[C@@H]2[C@H](CC[C@]3(C)[C@@H]([C@H](C)CCNC(=O)NS(=O)(=O)c4ccc(-c5csc(C)n5)cc4)CC[C@@H]23)[C@@]2(C)CC[C@@H](O)C[C@@H]12 [Example 71] , its EC50 was 100 to 1000 nM

CC[C@H]1[C@@H](O)[C@@H]2[C@H](CC[C@]3(C)[C@@H]([C@H](C)CCN(C)C(=O)NS(=O)(=O)c4ccc(C(C)(C)C)cc4)CC[C@@H]23)[C@@]2(C)CC[C@@H](O)C[C@@H]12 [Example 26] yielded EC50 of 100 to 1000 nM

The molecule CC[C@H]1[C@@H](O)[C@@H]2[C@H](CC[C@]3(C)[C@@H]([C@H](C)CCNC(=O)NS(=O)(=O)c4ccc(-c5ccccc5)cc4)CC[C@@H]23)[C@@]2(C)CC[C@@H](O)C[C@@H]12 [Example 54] showed EC50 equal to < 100 nM

EC50 reported for this molecule CC[C@H]1[C@@H](O)[C@@H]2[C@H](CC[C@]3(C)[C@@H]([C@H](C)CCNC(=O)NS(=O)(=O)c4ccc(C(=O)O)cc4)CC[C@@H]23)[C@@]2(C)CC[C@@H](O)C[C@@H]12 [Example 120] : 1000 to 10000 nM

// recorded EC50 for CC[C@H]1[C@@H](O)[C@@H]2[C@H](CC[C@]3(C)[C@@H]([C@H](C)CCNC(=O)NS(=O)(=O)c4ccc(C)cc4)CC[C@@H]23)[C@@]2(C)CC[C@@H](O)C[C@@H]12 [Example 93] : < 100 nM

###

Target: human FXR (NR1H4) (Homo sapiens (Human), UniProt Q96RI1)
Sequence (Q96RI1 whole entry, the tested form may be a part): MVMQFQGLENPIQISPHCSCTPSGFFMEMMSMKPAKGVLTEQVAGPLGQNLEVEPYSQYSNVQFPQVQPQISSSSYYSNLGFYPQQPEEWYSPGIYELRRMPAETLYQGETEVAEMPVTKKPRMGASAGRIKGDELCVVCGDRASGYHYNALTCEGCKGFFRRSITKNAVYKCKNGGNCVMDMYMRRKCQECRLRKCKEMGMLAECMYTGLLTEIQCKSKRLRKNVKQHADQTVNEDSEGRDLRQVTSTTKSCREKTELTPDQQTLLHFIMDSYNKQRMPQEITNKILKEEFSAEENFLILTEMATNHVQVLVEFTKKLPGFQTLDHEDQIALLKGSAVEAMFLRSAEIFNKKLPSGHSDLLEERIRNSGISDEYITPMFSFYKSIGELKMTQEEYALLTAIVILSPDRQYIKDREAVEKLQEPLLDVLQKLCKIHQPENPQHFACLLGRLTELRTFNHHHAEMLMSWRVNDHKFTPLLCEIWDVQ
Assay: Human FXR (NR1H4) Assay (Gal4 promoter driven luciferase reporter, Indigo Bioscience kit IB00601)
Settings: potency ranges
pEC50: −log10 of the molar value.
Entries annotated with measured pEC50

Solved entries:
>>> observed_value("CC[C@H]1[C@@H](O)[C@@H]2[C@H](CC[C@]3(C)[C@@H]([C@H](C)CCNC(=O)NS(=O)(=O)c4cnn(CC)c4)CC[C@@H]23)[C@@]2(C)CC[C@@H](O)C[C@@H]12")
"6.00 to 7.00"
>>> observed_value("CC[C@H]1[C@@H](O)[C@@H]2[C@H](CC[C@]3(C)[C@@H]([C@H](C)CCNC(=O)NS(=O)(=O)N4C(C)CCC4C)CC[C@@H]23)[C@@]2(C)CC[C@@H](O)C[C@@H]12 (stereo partly shown)")
"> 7.00"

Entry CC[C@H]1[C@@H](O)[C@@H]2[C@H](CC[C@]3(C)[C@@H]([C@H](C)CCNC(=O)NS(=O)(=O)C4CCC(C(C)(C)C)CC4)CC[C@@H]23)[C@@]2(C)CC[C@@H](O)C[C@@H]12 (stereo partly shown) under human FXR (NR1H4) (Homo sapiens (Human), UniProt Q96RI1) had pEC50 of > 7.00

Field pEC50 (human FXR (NR1H4) (Homo sapiens (Human), UniProt Q96RI1)), entry "CC[C@H]1[C@@H](O)[C@@H]2[C@H](CC[C@]3(C)[C@@H]([C@H](C)CNC(=O)NS(=O)(=O)c4cccc(N5CCCCC5)c4)CC[C@@H]23)[C@@]2(C)CC[C@@H](O)C[C@@H]12" : 6.00 to 7.00

###

Molecular target: human FXR (NR1H4) (Homo sapiens (Human))
Test: Human FXR (NR1H4) Assay (Gal4 promoter driven luciferase reporter, Indigo Bioscience kit IB00601)
Settings: potency ranges
Experimental: Assays Human FXR (NR1H4) Assay Determination of a ligand mediated Gal4 promoter driven transactivation quantify ligand binding mediated activation of FXR. […] The principle application of this reporter assay system is to quantify functional activity of human FXR. […] Luminescence intensity of the reaction is quantified using a plate-reading luminometer, Envision. […] Cells were incubated for additional 22 hours before luciferase activities were measured. […] Read time may be 0.5 second (500 mSec) per well.
pEC50: −log10 of the molar value.
Attribute Measured: pEC50

>>> observed_value("CC[C@H]1[C@@H](O)[C@@H]2[C@H](CC[C@]3(C)[C@@H]([C@H](C)CCNC(=O)NS(=O)(=O)c4cccc(Cl)c4)CC[C@@H]23)[C@@]2(C)CC[C@@H](O)C[C@@H]12")
"> 7.00"

Sure, the documented pEC50 for "CC[C@H]1[C@@H](O)[C@@H]2[C@H](CC[C@]3(C)[C@@H]([C@H](C)CCNC(=O)NS(=O)(=O)c4ccc5c(c4)OCO5)CC[C@@H]23)[C@@]2(C)CC[C@@H](O)C[C@@H]12" is > 7.00

pEC50 recorded for this compound, "CC[C@H]1[C@@H](O)[C@@H]2[C@H](CC[C@]3(C)[C@@H]([C@H](C)CCNC(=O)NS(=O)(=O)C[C@@]45CCC(CC4=O)C5(C)C)CC[C@@H]23)[C@@]2(C)CC[C@@H](O)C[C@@H]12" , is > 7.00

According to the records, this compound "CC[C@H]1[C@@H](O)[C@@H]2[C@H](CC[C@]3(C)[C@@H]([C@H](C)CCNC(=O)NS(=O)(=O)c4ccc(-c5ccccc5)s4)CC[C@@H]23)[C@@]2(C)CC[C@@H](O)C[C@@H]12" displays pEC50 of 6.00 to 7.00

GET /value?item= "CC[C@H]1[C@@H](O)[C@@H]2[C@H](CC[C@]3(C)[C@@H]([C@H](C)CCNC(=O)NS(=O)(=O)c4cccc(C)c4)CC[C@@H]23)[C@@]2(C)CC[C@@H](O)C[C@@H]12" &field=pEC50 returns > 7.00

"CC[C@H]1[C@@H](O)[C@@H]2[C@H](CC[C@]3(C)[C@@H]([C@H](C)CCNC(=O)NS(=O)(=O)c4ccc(C(C)(C)C)cc4)CC[C@@H]23)[C@@]2(C)CC[C@@H](O)C[C@@H]12" yielded pEC50 of > 7.00

pEC50 measured on "CC[C@H]1[C@@H](O)[C@@H]2[C@H](CC[C@]3(C)[C@@H]([C@H](C)CCCCNS(=O)(=O)C(C)(C)C)CC[C@@H]23)[C@@]2(C)CC[C@@H](O)C[C@@H]12" = 5.00 to 6.00

Input "CC[C@H]1[C@@H](O)[C@@H]2[C@H](CC[C@]3(C)[C@@H]([C@H](C)CCNC(=O)NS(=O)(=O)N4CCCC4)CC[C@@H]23)[C@@]2(C)CC[C@@H](O)C[C@@H]12" . Output pEC50: > 7.00

# pEC50 of "CC[C@H]1[C@@H](O)[C@@H]2[C@H](CC[C@]3(C)[C@@H]([C@H](C)CCNC(=O)NS(=O)(=O)c4cnccn4)CC[C@@H]23)[C@@]2(C)CC[C@@H](O)C[C@@H]12" = 5.00 to 6.00
